Listed below: pKd values for each entry.
# study system: T1, MBP-ATPase/hel (Homo sapiens, UniProt Q9UPY3 1-604)
# T1 sequence: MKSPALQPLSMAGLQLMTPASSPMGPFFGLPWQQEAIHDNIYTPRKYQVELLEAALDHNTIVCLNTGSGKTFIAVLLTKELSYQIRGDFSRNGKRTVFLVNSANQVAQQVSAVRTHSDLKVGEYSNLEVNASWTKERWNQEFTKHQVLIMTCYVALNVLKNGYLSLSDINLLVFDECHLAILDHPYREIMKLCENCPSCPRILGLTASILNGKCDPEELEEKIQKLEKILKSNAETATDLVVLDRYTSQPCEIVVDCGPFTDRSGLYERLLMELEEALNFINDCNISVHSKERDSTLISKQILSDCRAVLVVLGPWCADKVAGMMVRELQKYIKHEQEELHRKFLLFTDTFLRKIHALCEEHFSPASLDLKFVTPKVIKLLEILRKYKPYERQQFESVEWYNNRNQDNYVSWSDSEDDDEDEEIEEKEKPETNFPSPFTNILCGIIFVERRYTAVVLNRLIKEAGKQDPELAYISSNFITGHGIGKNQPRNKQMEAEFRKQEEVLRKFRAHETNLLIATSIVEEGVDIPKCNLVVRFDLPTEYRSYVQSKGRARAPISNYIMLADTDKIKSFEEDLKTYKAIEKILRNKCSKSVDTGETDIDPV
# test: filter binding
Scale explanation: pKd corresponds to minus log10 of a concentration expressed in moles per litre.

>  <binder>
pre-hlet-7a-1 (structured_RNA) RNA: UGAGGUAGUAGGUUGUAUAGUUUUAGGGUCACACCCACCACUGGGAGAUAACUAUACAAUCUACUGUCUUACC

>  <reported measurement>
7.02

$$$$

Okay, now this binder:
# input binder: 37ab (dsRNA) RNA 1: UGAGGUAGUAGGUUGUAUAGUUUGAAAGUUCACGAUU RNA 2: UCGUGAACUUUCAAACUAUACAACCUACUACCUCAUU ; wanted: its pKd
6.32
